System: Ps. aeruginosa Walter
PROCEDURE_TEXT: Minimum inhibitory concentration (MIC), serial dilution on Iso-Sensitest Agar
Type: cell-based
MEASUREMENT_PARAMETERS: Pseudomonas aeruginosa, 37° C., about 20 hours
Provide the recorded MIC for the entries that follow.
Enter your answer as a number in µg/mL; do not include the unit.

Item NC12C=CC=CC1CN(c1nc3c(cc1F)c(=O)c(C(=O)O)cn3C1CC1)C2 (centres unmarked) ; assay system Ps. aeruginosa Walter; MIC reported as 1

Item NC12C=CC=CC1CN(c1c(F)cc3c(=O)c(C(=O)O)cn(C4CC4)c3c1F)C2 (centres unmarked) ; assay system Ps. aeruginosa Walter; MIC reported as 1

Item COc1c(N2CC3C=CC=CC3(N)C2)c(F)cc2c(=O)c(C(=O)O)cn(C3CC3)c12 (centres unmarked) ; assay system Ps. aeruginosa Walter; MIC reported as 0.5

Item NC12C=CC=CC1CN(c1c(F)cc3c(=O)c(C(=O)O)cn(C4CC4)c3c1Cl)C2 (centres unmarked) ; assay system Ps. aeruginosa Walter; MIC reported as 0.5

Item CC1C=CC(N)C2CN(c3c(F)cc4c(=O)c(C(=O)O)cn(C5CC5)c4c3Cl)CC12 (centres unmarked) [Ref. 3, reference compound] ; assay system Ps. aeruginosa Walter; MIC reported as 0.5

Item NC12C=CC=CC1CN(c1c(F)cc3c(=O)c(C(=O)O)cn([C@@H]4C[C@@H]4F)c3c1F)C2 (some centres unmarked) ; assay system Ps. aeruginosa Walter; MIC reported as 0.5

Item CC1C=CC(N)C2CN(c3c(F)cc4c(=O)c(C(=O)O)cn(C5CC5)c4c3F)CC12 (centres unmarked) [Ref. 1, reference compound] ; assay system Ps. aeruginosa Walter; MIC reported as 0.5

Item COc1c(N2CC3C(C)C=CC(N)C3C2)c(F)cc2c(=O)c(C(=O)O)cn(C3CC3)c12 (centres unmarked) [Ref. 2, reference compound] ; assay system Ps. aeruginosa Walter; MIC reported as 1

====

Provide the recorded MIC for the entries that follow.
Enter your answer as a number in µg/mL; do not include the unit.

Item CC1C=CC(N)C2CN(c3c(F)cc4c(=O)c(C(=O)O)cn(C5CC5)c4c3F)CC12 (centres unmarked) [Ref. 1, reference compound] ; assay system Bac. fragilis ES 25; MIC reported as 0.5

Item NC12C=CC=CC1CN(c1c(F)cc3c(=O)c(C(=O)O)cn(C4CC4)c3c1F)C2 (centres unmarked) ; assay system Bac. fragilis ES 25; MIC reported as 1

Item NC12C=CC=CC1CN(c1c(F)cc3c(=O)c(C(=O)O)cn(C4CC4)c3c1Cl)C2 (centres unmarked) ; assay system Bac. fragilis ES 25; MIC reported as 0.125

Item COc1c(N2CC3C(C)C=CC(N)C3C2)c(F)cc2c(=O)c(C(=O)O)cn(C3CC3)c12 (centres unmarked) [Ref. 2, reference compound] ; assay system Bac. fragilis ES 25; MIC reported as 0.25

Item CC1C=CC(N)C2CN(c3c(F)cc4c(=O)c(C(=O)O)cn(C5CC5)c4c3Cl)CC12 (centres unmarked) [Ref. 3, reference compound] ; assay system Bac. fragilis ES 25; MIC reported as 0.125

Item NC12C=CC=CC1CN(c1nc3c(cc1F)c(=O)c(C(=O)O)cn3C1CC1)C2 (centres unmarked) ; assay system Bac. fragilis ES 25; MIC reported as 4

Item COc1c(N2CC3C=CC=CC3(N)C2)c(F)cc2c(=O)c(C(=O)O)cn(C3CC3)c12 (centres unmarked) ; assay system Bac. fragilis ES 25; MIC reported as 2

Item NC12C=CC=CC1CN(c1c(F)cc3c(=O)c(C(=O)O)cn([C@@H]4C[C@@H]4F)c3c1F)C2 (some centres unmarked) ; assay system Bac. fragilis ES 25; MIC reported as 0.5

====

Provide the recorded IC50 for the entries that follow.
PROCEDURE_TEXT: Inhibition of DNA synthesis in CHO-KI cells (interaction with mammalian DNA), fluorophotometric
Format: cell-based, Chinese hamster
MEASUREMENT_PARAMETERS: hamster, cho-k1 cells; concentration at which DNA synthesis in CHO-KI cells is inhibited by 50%; read-out: ID50 (the source's name)

Consider COc1c(N2CC3C=CC=CC3(N)C2)c(F)cc2c(=O)c(C(=O)O)cn(C3CC3)c12 (centres unmarked) [Example 4] . Its measured IC50 is > 64 µg/mL

Consider NC12C=CC=CC1CN(c1nc3c(cc1F)c(=O)c(C(=O)O)cn3C1CC1)C2 (centres unmarked) [Example 9] . Its measured IC50 is 32 µg/mL

Consider NC12C=CC=CC1CN(c1c(F)cc3c(=O)c(C(=O)O)cn(C4CC4)c3c1Cl)C2 (centres unmarked) [Example 3] . Its measured IC50 is 32 µg/mL

Consider NC12C=CC=CC1CN(c1c(F)cc3c(=O)c(C(=O)O)cn([C@@H]4C[C@@H]4F)c3c1F)C2 (some centres unmarked) [Example 8] . Its measured IC50 is 16 µg/mL

Consider CC1C=CC(N)C2CN(c3c(F)cc4c(=O)c(C(=O)O)cn(C5CC5)c4c3F)CC12 (centres unmarked) [Ref. 1, reference compound] . Its measured IC50 is 0.015 µg/mL

Consider NC12C=CC=CC1CN(c1c(F)cc3c(=O)c(C(=O)O)cn(C4CC4)c3c1F)C2 (centres unmarked) [Example 2] . Its measured IC50 is 32 µg/mL

Consider COc1c(N2CC3C(C)C=CC(N)C3C2)c(F)cc2c(=O)c(C(=O)O)cn(C3CC3)c12 (centres unmarked) [Ref. 2, reference compound] . Its measured IC50 is 0.1 µg/mL

Consider CC1C=CC(N)C2CN(c3c(F)cc4c(=O)c(C(=O)O)cn(C5CC5)c4c3Cl)CC12 (centres unmarked) [Ref. 3, reference compound] . Its measured IC50 is 0.1 µg/mL

====

PROPERTY: MIC

Item NC12C=CC=CC1CN(c1c(F)cc3c(=O)c(C(=O)O)cn(C4CC4)c3c1Cl)C2 (centres unmarked) [Example 3] ; assay system E. coli Neumann; MIC reported as ≤ 0.015 µg/mL

Item NC12C=CC=CC1CN(c1nc3c(cc1F)c(=O)c(C(=O)O)cn3C1CC1)C2 (centres unmarked) [Example 9] ; assay system E. coli Neumann; MIC reported as ≤ 0.015 µg/mL

Item COc1c(N2CC3C=CC=CC3(N)C2)c(F)cc2c(=O)c(C(=O)O)cn(C3CC3)c12 (centres unmarked) [Example 4] ; assay system E. coli Neumann; MIC reported as ≤ 0.015 µg/mL

Item CC1C=CC(N)C2CN(c3c(F)cc4c(=O)c(C(=O)O)cn(C5CC5)c4c3Cl)CC12 (centres unmarked) [Ref. 3, reference compound] ; assay system E. coli Neumann; MIC reported as 0.015 µg/mL

Item COc1c(N2CC3C(C)C=CC(N)C3C2)c(F)cc2c(=O)c(C(=O)O)cn(C3CC3)c12 (centres unmarked) [Ref. 2, reference compound] ; assay system E. coli Neumann; MIC reported as 0.015 µg/mL

Item CC1C=CC(N)C2CN(c3c(F)cc4c(=O)c(C(=O)O)cn(C5CC5)c4c3F)CC12 (centres unmarked) [Ref. 1, reference compound] ; assay system E. coli Neumann; MIC reported as 0.015 µg/mL

Item NC12C=CC=CC1CN(c1c(F)cc3c(=O)c(C(=O)O)cn(C4CC4)c3c1F)C2 (centres unmarked) [Example 2] ; assay system E. coli Neumann; MIC reported as ≤ 0.015 µg/mL

Item NC12C=CC=CC1CN(c1c(F)cc3c(=O)c(C(=O)O)cn([C@@H]4C[C@@H]4F)c3c1F)C2 (some centres unmarked) [Example 8] ; assay system E. coli Neumann; MIC reported as ≤ 0.015 µg/mL
